System: NCI-H322M
Test: NCI one-dose SRB growth inhibition
Format: cell-based
Details: Homo sapiens, Non-Small Cell Lung Cancer, 48 h, read-out: GI% NCI-H322M
Assign inhibition at 10 µM to each entry below.
Give bare numbers, in %.

Please state inhibition at 10 µM for every compound in the list that follows.
1. CCOC(=O)c1ccc(NC(=O)Nc2ccc(-c3cccs3)nc2C)cc1 [Compound 5j]
2. Cc1nc(-c2ccc(F)cc2)ccc1NC(=O)Nc1cccc(C(F)(F)F)c1 [Compound 5a]

output:
1: 17; 2: 15

====

Test system: A549 cell line
Assay: MTT anti-proliferative assay
Type: cell-based
Settings: Homo sapiens, 48 h of incubation, mean ± SD of three experiments
reported.metric: pIC50
One number for each entry, as −log10 of the molar value.

Below, each entry is followed by its recorded pIC50 result.
Cc1nc(-c2cccs2)ccc1NC(=O)Nc1ccc(F)cc1
4.97
CCOC(=O)c1ccc(NC(=O)Nc2ccc(-c3cccs3)nc2C)cc1
5.09
Cc1nc(-c2ccc(F)cc2)ccc1NC(=O)Nc1ccc2c(c1)OCO2
4.90
Cc1nc(-c2ccc(F)cc2)ccc1NC(=O)Nc1cccc(C(F)(F)F)c1
5.17

Okay, next one:
input: Name the recorded pIC50 for Cc1nc(-c2cccs2)ccc1NC(=O)Nc1ccc(Cl)cc1 .
output: 5.06

====

Assign inhibition at 10 µM to each entry below.
System: SK-MEL-2
Assay: NCI one-dose SRB growth inhibition
Format: cell-based
Settings: Homo sapiens, Melanoma, 48 h, read-out: GI% SK-MEL-2

Cc1nc(-c2ccc(F)cc2)ccc1NC(=O)Nc1cccc(C(F)(F)F)c1 [Compound 5a]
< 10%
Cc1nc(-c2ccc(Cl)cc2)ccc1NC(=O)Nc1cccc(C(F)(F)F)c1 [Compound 5e]
< 10%
CCOC(=O)c1ccc(NC(=O)Nc2ccc(-c3cccs3)nc2C)cc1 [Compound 5j]
11%

Okay, next one:
input: Name the recorded inhibition at 10 µM for CCOC(=O)c1ccc(NC(=O)Nc2ccc(-c3ccc(F)cc3)nc2C)cc1 [Compound 5c] .
output: < 10%

====

System: MCF7
Assay: NCI one-dose SRB growth inhibition
Assay type: cell-based
Details: Homo sapiens, Breast Cancer, 48 h, read-out: GI% MCF7
Assign inhibition at 10 µM to each entry below.
Numbers only, in %.

Please state inhibition at 10 µM for every molecule in the list that follows.
1. Cc1nc(-c2ccc(Cl)cc2)ccc1NC(=O)Nc1cccc(C(F)(F)F)c1
2. COc1ccc(NC(=O)Nc2ccc(-c3ccc(Cl)cc3)nc2C)cc1
3. Cc1nc(-c2cccs2)ccc1NC(=O)Nc1ccc(F)cc1
4. CCOC(=O)c1ccc(NC(=O)Nc2ccc(-c3ccc(F)cc3)nc2C)cc1
5. Cc1nc(-c2cccs2)ccc1NC(=O)Nc1ccc(Cl)cc1
6. Cc1nc(-c2ccc(F)cc2)ccc1NC(=O)Nc1cccc(C(F)(F)F)c1
7. CCOC(=O)c1ccc(NC(=O)Nc2ccc(-c3cccs3)nc2C)cc1

output:
1. 20
2. 23
3. 22
4. 20
5. 12
6. 30
7. 21

====

Tested on: A549 cell line
Assay: MTT anti-proliferative assay
Type: cell-based
Settings: Homo sapiens, 48 h of incubation, mean ± SD of three experiments
reported.metric: IC50
Phrase the answer as number then unit, nothing more needed.

Below, each entry is followed by its recorded IC50 result.
CCOC(=O)c1ccc(NC(=O)Nc2ccc(-c3ccc(F)cc3)nc2C)cc1
9.61 µM
COc1cccc2c1C(=O)c1c(O)c3c(c(O)c1C2=O)C[C@@](O)(C(=O)CO)C[C@@H]3O[C@H]1C[C@H](N)[C@H](O)[C@H](C)O1 [Doxorubicin, reference compound]
2.93 µM
Cc1nc(-c2ccc(Cl)cc2)ccc1NC(=O)Nc1cccc(C(F)(F)F)c1
11.9 µM
Cc1nc(-c2ccc(Cl)cc2)ccc1NC(=O)Nc1ccc2c(c1)OCO2
6.72 µM
COc1ccc(NC(=O)Nc2ccc(-c3ccc(Cl)cc3)nc2C)cc1
7.9 µM

Please state IC50 for every compound in the list that follows.
1. Cc1nc(-c2ccc(F)cc2)ccc1NC(=O)Nc1cc(C(F)(F)F)cc(C(F)(F)F)c1
2. Cc1nc(-c2cccs2)ccc1NC(=O)Nc1ccc2c(c1)OCO2

output:
24.1 µM
19.2 µM
